test: Fraction unbound in rat plasma; assay type: ADME, cell-free
Record form. Attribute: fraction unbound. Fill in for each entry.
The response must contain the number and no unit.

q: Dear colleague, please send me the reported fraction unbound for Cc1ccc(NC(=O)c2ccnc(C(F)(F)F)c2)cc1-c1ccc2c(c1)OC1(CCOCC1)CC(=O)N2 when you can.
a: 0.009

q: Given the compound Cc1ccc(NC(=O)c2cc(C(F)(F)F)cnn2)cc1-c1ccc2c(c1)OC1(CCOCC1)CC(=O)N2 , write its reported fraction unbound.
a: 0.06

---

Consider the following compounds; for each one, report its half-life.
assay: Metabolic stability in rat liver microsomes assessed as half life; type: ADME, Microsome

q: Item Cc1ccc(NC(=O)c2ccnc(C(F)(F)F)c2)cc1-c1ccc2c(c1)OC1(CCOCC1)CC(=O)N2 : provide half-life
a: 44.9 min

q: Consider the compound Cc1ccc(NC(=O)c2cc(C(F)(F)F)cnn2)cc1-c1ccc2c(c1)OC1(CCOCC1)CC(=O)N2 and give its recorded half-life.
a: 74.2 min

Values from ChEMBL document CHEMBL5038628
